Molecular target: F508delCFTR (Homo sapiens, UniProt P13569, DEL508-508)
Construct: expressed in transfected cells; host or cells: CFBE41o- human lung-derived epithelial cells (CFBE4lo-F508delCFTR-HRP), doxycycline-inducible
Sequence (P13569 with tags, fused parts or gaps DEL508-508): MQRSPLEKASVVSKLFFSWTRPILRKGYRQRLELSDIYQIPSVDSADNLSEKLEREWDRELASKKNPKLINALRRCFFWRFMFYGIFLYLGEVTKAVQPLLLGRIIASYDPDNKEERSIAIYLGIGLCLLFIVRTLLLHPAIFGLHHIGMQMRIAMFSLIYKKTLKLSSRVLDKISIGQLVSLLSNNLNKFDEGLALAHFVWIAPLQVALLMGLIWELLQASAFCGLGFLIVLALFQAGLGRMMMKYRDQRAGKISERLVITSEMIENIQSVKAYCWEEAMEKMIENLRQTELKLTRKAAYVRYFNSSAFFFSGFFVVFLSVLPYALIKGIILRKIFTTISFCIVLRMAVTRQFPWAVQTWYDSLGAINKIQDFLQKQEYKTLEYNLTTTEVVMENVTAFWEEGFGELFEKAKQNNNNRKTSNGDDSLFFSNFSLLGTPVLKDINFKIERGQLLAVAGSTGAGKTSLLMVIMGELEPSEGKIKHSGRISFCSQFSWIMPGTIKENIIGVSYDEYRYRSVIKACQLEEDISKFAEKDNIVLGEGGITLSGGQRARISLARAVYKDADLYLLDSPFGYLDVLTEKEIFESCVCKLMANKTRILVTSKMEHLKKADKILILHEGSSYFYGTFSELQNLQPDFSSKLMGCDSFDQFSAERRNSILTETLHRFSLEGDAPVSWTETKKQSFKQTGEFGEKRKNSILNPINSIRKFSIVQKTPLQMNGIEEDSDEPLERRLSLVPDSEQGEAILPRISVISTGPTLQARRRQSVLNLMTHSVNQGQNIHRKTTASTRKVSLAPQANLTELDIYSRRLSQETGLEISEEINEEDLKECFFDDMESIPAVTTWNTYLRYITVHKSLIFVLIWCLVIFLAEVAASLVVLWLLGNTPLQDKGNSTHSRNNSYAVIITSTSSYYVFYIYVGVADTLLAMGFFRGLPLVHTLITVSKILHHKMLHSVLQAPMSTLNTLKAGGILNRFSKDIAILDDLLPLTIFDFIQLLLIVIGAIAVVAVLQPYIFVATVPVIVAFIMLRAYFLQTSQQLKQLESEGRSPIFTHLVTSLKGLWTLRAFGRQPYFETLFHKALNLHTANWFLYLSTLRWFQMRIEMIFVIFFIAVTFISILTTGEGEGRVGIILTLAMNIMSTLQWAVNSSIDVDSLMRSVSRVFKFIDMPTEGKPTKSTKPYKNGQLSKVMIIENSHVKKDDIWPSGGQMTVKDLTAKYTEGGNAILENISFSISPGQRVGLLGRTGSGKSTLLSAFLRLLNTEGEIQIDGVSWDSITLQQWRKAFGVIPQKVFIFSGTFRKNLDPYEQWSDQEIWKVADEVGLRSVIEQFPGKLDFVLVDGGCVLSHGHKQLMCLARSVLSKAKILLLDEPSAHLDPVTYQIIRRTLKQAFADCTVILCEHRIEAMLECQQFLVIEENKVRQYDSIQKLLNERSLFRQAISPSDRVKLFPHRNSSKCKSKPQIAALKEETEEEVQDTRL
Assay: Cell Surface Expression-Horse Radish Peroxidase (CSE-HRP) Assay
Assay type: cell-based
Conditions: test compound without co-corrector; read-out: EC50 (without co-corrector)
pEC50: −log10 of the molar value.
Here, each record is paired with measured pEC50 data.

Answered examples (3):
compound: COc1cc(C(F)(F)F)ccc1CN[C@@H]1[C@@H](C(C)(C)C)[C@H](C(=O)O)N(C(=O)C2CCCCC2)[C@@H]1c1ccccc1 (racemic) [III-35]
assayed_system: F508delCFTR (Homo sapiens, UniProt P13569, DEL508-508)
metric: pEC50
assay_value: 5.00 to 6.00
//
compound: COc1ccc(C(C)(C)C)cc1CN[C@H]1[C@H](C(C)(C)C)[C@@](C)(C(=O)O)N(C(=O)[C@H](OC)c2ccccc2)[C@H]1c1ccccc1 [III-215]
assayed_system: F508delCFTR (Homo sapiens, UniProt P13569, DEL508-508)
metric: pEC50
assay_value: 5.00 to 6.00
//
compound: COc1cc(C(F)(F)F)ccc1CN[C@@H]1[C@@H](C(C)(C)C)[C@H](C(=O)O)N(C(=O)C2CCC3(CC2)CC3)[C@@H]1c1ccccc1 (racemic) [III-105]
assayed_system: F508delCFTR (Homo sapiens, UniProt P13569, DEL508-508)
metric: pEC50
assay_value: 5.00 to 6.00

Request: What value of measured pEC50 is listed for COc1ccc(C(F)(F)F)cc1CN[C@H]1[C@H](C(C)(C)C)[C@@H](C(=O)O)N(C(=O)[C@@H]2OCC[C@@H]2C(C)C)[C@H]1c1ccccc1 (relative stereo) [Example I-105] ?
Response: 5.00 to 6.00

Request: Quick one: COc1ccc(C(C)(C)C)cc1CN[C@H]1[C@H](C(C)(C)C)[C@@H](C(=O)O)N(C(=O)[C@@H]2CCC[C@](C)(O)C2)[C@H]1c1ccccc1 [II-526]
Response: 5.00 to 6.00

====

Target: F508delCFTR (Homo sapiens, UniProt P13569, DEL508-508)
Construct: expressed in transfected cells; host or cells: CFBE41o- human lung-derived epithelial cells (CFBE4lo-F508delCFTR-HRP), doxycycline-inducible
Test: Cell Surface Expression-Horse Radish Peroxidase (CSE-HRP) Assay
Format: cell-based
Conditions: test compound without co-corrector; read-out: EC50 (without co-corrector)
pEC50: −log10 of the molar value.
metric: pEC50

molecule: COc1ncc(C2CCC2)cc1CN[C@H]1[C@H](C(C)(C)C)[C@@H](C(=O)O)N(C(=O)C2CCCCC2)[C@H]1c1cccnc1OC
metric: pEC50
assay_value: 5.00 to 6.00

Request: What value of measured pEC50 is listed for COC(=O)N1CCC[C@@H](C(=O)N2[C@H](c3ccccc3)[C@H](Nc3cc(C(F)(F)F)cc(C)n3)[C@@H](C(C)(C)C)[C@@H]2C(=O)O)C1 (racemic) ?
Response: 5.00 to 6.00

Request: Quick one: COc1cc(OC)c(CN[C@@H]2[C@@H](C(C)(C)C)[C@H](C(=O)O)N(C(=O)C3CCCCC3)[C@@H]2c2ccccc2)cc1Cl (racemic)
Response: 5.00 to 6.00

Request: Quick one: COc1cc(Cl)ccc1CN[C@@H]1[C@@H](C)[C@H](C(=O)O)N(C(=O)N(C(C)C)C(C)C)[C@@H]1c1ccccc1 (racemic)
Response: < 5.00

Request: Quick one: `COc1ccc(C23CC(C2)C3)cc1CN[C@H]1[C@H](C(C)(C)C)[C@@H](C(=O)O)N(C(=O)C2CCCCC2)[C@H]1c1ccccc1F`
Response: 5.00 to 6.00

Request: Quick one: `COc1ncc(C(F)(F)F)cc1CN[C@H]1[C@H](C(C)(C)C)[C@@H](C(=O)O)N(C(=O)[C@@H]2CCCCO2)[C@H]1c1ccccc1C(C)C`
Response: > 6.00

Request: Quick one: `COc1ccc(C23CC4CC(CC(C4)C2)C3)cc1CN[C@H]1[C@H](C(C)(C)C)[C@@H](C(=O)O)N(C(=O)C2CCCCC2)[C@H]1c1cccnc1N(C)C`
Response: > 6.00

Request: Quick one: `COc1ncc(-c2ccccc2F)cc1CN[C@H]1[C@H](C(C)(C)C)[C@@H](C(=O)O)N(C(=O)C2CCCCC2)[C@H]1c1cccnc1N(C)C`
Response: 5.00 to 6.00

Request: Quick one: COc1ccc(C(C)(C)C)cc1CN[C@H]1[C@H](C(C)(C)C)[C@@H](C(=O)O)N(C(=O)[C@H]2OCC[C@H]2c2ccccc2)[C@H]1c1ccccc1 (relative stereo)
Response: 5.00 to 6.00

Request: Quick one: Cc1cc(C(F)(F)F)cc(N[C@@H]2[C@@H](C(C)(C)C)[C@H](C(=O)O)N(C(=O)[C@H]3C[C@H]4CC[C@@H]3C4)[C@@H]2c2ccccc2)n1 (racemic)
Response: < 5.00

Request: Quick one: `COc1ccc(C(C)(C)C)cc1CN[C@H]1[C@H](C(C)(C)C)[C@@H](C(=O)O)N(C(=O)C2CC(C)(C)OC(C)(C)C2)[C@H]1c1ccccc1`
Response: 5.00 to 6.00

Request: Quick one: `COc1ccc(C(C)(C)C)cc1CN[C@H]1[C@H](C(C)(C)C)[C@@H](C(=O)O)N(C(=O)[C@@H](C)Oc2ccccc2)[C@H]1c1ccccc1`
Response: 5.00 to 6.00

Request: Quick one: `COc1ccc(C(C)(C)C)cc1CN[C@H]1[C@H](C(C)(C)C)[C@@H](C(=O)O)N(C(=O)C2CCCCC2)[C@H]1c1ccc(F)cc1`
Response: > 6.00

Request: Quick one: `CCC(CC)C(=O)N1[C@H](C(=O)O)[C@@H](C(C)(C)C)[C@H](NCc2cc(C(C)(C)C)ccc2OC)[C@@H]1c1ccccc1`
Response: 5.00 to 6.00

Request: Quick one: `COc1cc(C(F)(F)F)ccc1CN[C@H]1[C@H](C(C)(C)C)[C@@H](C(=O)O)N(C(=O)OC(C)C)[C@H]1c1cccnc1N(C)C`
Response: 5.00 to 6.00

// provenance: patent US20180099931A1
